Data origin: patent EP1379283B1

target: MC1-R of B-16 mouse melanoma cells (mouse) (UniProt Q01727); test: competition with 0.4 nM 125I-NDP-alpha-MSH on B-16 mouse melanoma cell membranes, metallopeptide at 1 µM
Sequence (Q01727 whole entry): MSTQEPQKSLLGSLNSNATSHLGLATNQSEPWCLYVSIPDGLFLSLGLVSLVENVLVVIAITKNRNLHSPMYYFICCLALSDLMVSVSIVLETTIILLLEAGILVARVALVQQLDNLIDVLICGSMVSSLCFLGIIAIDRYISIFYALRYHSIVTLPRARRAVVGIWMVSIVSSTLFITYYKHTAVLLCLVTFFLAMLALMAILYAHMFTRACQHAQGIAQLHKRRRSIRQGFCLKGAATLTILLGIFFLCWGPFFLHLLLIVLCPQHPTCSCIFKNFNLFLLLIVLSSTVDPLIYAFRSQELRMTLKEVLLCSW
Square brackets hold non-standard residues; d marks the D form. Nle = CCCC[C@H](N)C(=O)O
Measured Metric: % Inhibition at 1 µM (%)
I only need the number, in %, no unit after it.

Previously resolved entries follow.
Binder	Measured Metric	Quantitative Result
Ac-[Nle]AHC[dF]RW-NH2 (bridge (positions not given here) via ReOCl3(PPh3)2; also: oxorhenium(V) metal complex) [Re-complexed Ac-Nle-Ala-His-Cys-D-Phe-Arg-Trp-NH2]	% Inhibition at 1 µM	84
Ac-[Nle]AH[dF]CRW-NH2 (bridge (positions not given here) via ReOCl3(PPh3)2; also: oxorhenium(V) metal complex) [Re-complexed Ac-Nle-Ala-His-D-Phe-Cys-Arg-Trp-NH2]	% Inhibition at 1 µM	93
Ac-[Nle]ACH[dF]RW-NH2 (bridge (positions not given here) via ReOCl3(PPh3)2; also: oxorhenium(V) N3S1 metal chelate (X-X-Cys)) [Re-complexed Ac-Nle-Ala-Cys-His-D-Phe-Arg-Trp-NH2]	% Inhibition at 1 µM	96

Please give the documented % Inhibition at 1 µM of Ac-[Nle]AH[dF]RWC-NH2 (bridge (positions not given here) via ReOCl3(PPh3)2; also: oxorhenium(V) metal complex) [Re-complexed Ac-Nle-Ala-His-D-Phe-Arg-Trp-Cys-NH2]
91

Please give the documented % Inhibition at 1 µM of XAHFRCW (N-terminal acetyl; X at 1 = Nle; D-Phe at 4; Cys 6 complexed to a rhenium-oxo (Re) metal ion; C-terminal amide) [Re-complexed Ac-Nle-Ala-His-D-Phe-Arg-Cys-Trp-NH2]
96
